- System: Zebrafish larvae lipid metabolism, fluorescent lipid gallbladder/intestine
- run-description: larval zebrafish lipid processing modulation – whole organism, confirmation, fluorescent lipid, gallbladder/intestine, dose response (AID 691)
Records with an inconclusive call do not appear. The source made the active and inactive calls. The rule behind the calls is not given here.
Give one outcome, nothing more. List: true (1) (active), false (0) (inactive)

Tell me the assay call for N#CC1=C(SCC(=O)c2ccc(Cl)cc2)NC2=C(C(=O)CCC2)C1c1ccco1 (stereo not given) please.
false (0)

Please answer likewise for OCCN1CCN(CCCN2c3ccccc3Sc3ccc(C(F)(F)F)cc32)CC1
false (0)

Repeat with COc1ccc(C2CC(C(F)(F)F)n3ncc(C(=O)Nc4cccc(O)c4)c3N2)cc1OC (stereo not given)
false (0)

Ok, now CCOC(=O)CCc1c(C)c(C#N)c2[nH]c3ccccc3n2c1=O
false (0)

What about COc1cccc(-c2nnc3sc(-c4ccco4)nn23)c1 ?
false (0)

Then CCOC(=O)CSc1nc(N)c(C(=O)Nc2ccc(N(C)C)cc2)s1 ?
true (1)

Then what about the molecule CC1(C)Cc2c(C#N)c(NCc3ccco3)nc(-c3ccco3)c2CO1 ?
false (0)

Consider next the molecule N#CCSc1nc2c(c(=O)n1Cc1ccco1)C1(CCCC1)Cc1ccccc1-2 in the same way.
true (1)

What about this molecule? c1coc(-c2nnc3sc(-c4cccs4)nn23)c1
true (1)

Note, next up: N#Cc1ccc(CSc2nnc(-c3ccccn3)n2-c2ccccc2)cc1
false (0)

Same thing, different molecule: O=C1c2ccccc2-c2onc3ccc(NCc4ccco4)c1c23
true (1)

Can you handle CCN(CC)c1ccc(C2Nc3cccc4cccc(c34)N2)c(O)c1 next?
false (0)

Then this molecule: c1ccc(-c2nnc3sc(Cc4cccs4)nn23)cc1
true (1)

And what about the molecule COC(=O)c1cc(Br)c(=O)n(CCc2ccc(F)cc2)c1 ?
false (0)

Repeat with Clc1ccc(OCc2nnc(SCCN3CCCCC3)n2Cc2ccco2)cc1
true (1)

What about this molecule? COc1ccccc1-c1nnc2sc(C3CCCCC3)nn12
false (0)

Now the same for CC(=O)Nc1nnc(S(N)(=O)=O)s1
false (0)

Now this one: Cc1nnc(NC(=O)C2CCCO2)s1 (stereo not given)
false (0)

Repeat for the following molecule: COCCCN1C(=O)C(O)=C(C(C)=O)C1c1ccccn1 (stereo not given)
false (0)

What do we get for COc1ccc(OC)c(Nc2nc(-c3cccs3)cs2)c1 ?
true (1)

Also COC(=O)c1sccc1NC(=O)c1ccco1 , if possible.
false (0)

Thanks! And CCOC(=O)C1CCCN(c2nc3ccccc3nc2C(C#N)C(=O)OCCOC)C1 (stereo not given) ?
false (0)

Same question for COC(=O)c1ccc(Cn2nnc3c(sc4nc(N5CCOCC5)c5c(c43)CCCC5)c2=O)o1 please.
false (0)

Now the same for Cc1ccc(CNC(=O)c2cc3c(=O)n4ccccc4nc3n(Cc3ccco3)c2=N)cc1
true (1)

Next entry: CCOC(=O)CSc1nnc2n(Cc3ccccc3)c(=O)c3c4c(sc3n12)CCC4
false (0)

Proceed to COc1ccc2c(c1)c(C(=O)CN1CCOCC1)c(C)n2C
false (0)

Proceed to Cc1c(N=Cc2c(O)n(CCc3ccc(F)cc3)c(=O)[nH]c2=O)c(=O)n(-c2ccccc2)n1C
false (0)

Next entry: CS(=O)(=O)Nc1ccc([N+](=O)[O-])cc1Oc1ccccc1
false (0)

// repeat for COc1ccc(C)cc1-n1nnnc1SC/C(O)=C(\C#N)c1nc2ccccc2[nH]1 and report
false (0)

Repeat with Cc1cccc2c1NC(C)CC2C (stereo not given)
false (0)

Then Cc1ccc2nc(C3CCN(CC(=O)N4CCCCCC4)CC3)[nH]c2c1 ?
false (0)

Consider next the molecule Cc1ccc2[nH]c3c(c2c1)CN(C(=O)CN1CCCc2ccccc21)CC3 in the same way.
false (0)

And what about the molecule CCN1CC2=C(OC(N)=C(C#N)C2c2ccccc2)/C(=C\c2ccccc2)C1 (stereo not given) ?
false (0)

Repeat with N#Cc1c(NCCN)nc(NCc2ccccc2)c2c1CCN(Cc1ccccc1)C2
false (0)

Cool, now CC1Oc2ccccc2N(CC(=O)NCc2cccs2)C1=O (stereo not given)
false (0)

Follow-up entry: Cn1c(C(=O)OC(C(=O)NC2CCCC2)c2cccnc2)cc2sccc21 (stereo not given)
false (0)

Now the molecule CCNC(=O)c1cc2c(=O)n3cccc(C)c3nc2n(CCc2ccccc2)c1=N
false (0)

Please give the result for CC1(c2cnc(Nc3ccccc3)s2)CCC(=O)O1 (stereo not given) too.
false (0)

What do you have for CC(C)N=c1cc2n(-c3ccc(Cl)cc3)c3ccccc3nc-2cc1Nc1ccc(Cl)cc1 ?
true (1)

Same read-out for CNc1oc(-c2ccccc2Cl)nc1C#N ?
false (0)

Data provenance: PubChem BioAssay AID691
